Measure Name: melting point

{"columns": ["Substance Smiles", "melting point"],
 "data": [
  ["Cc1cc(O)cc(NC(=O)Nc2cccc(C(F)(F)F)c2)c1", "188 to 190 °C"],
  ["O=C(Nc1ccc(-c2ccccc2)cc1)Nc1cc(Cl)ccc1O", "191 to 192 °C"],
  ["Cc1cc(O)ccc1NC(=O)Nc1cc(C(F)(F)F)ccc1Cl", "210 to 211 °C"],
  ["Nc1cc(Cl)c(Cl)cc1NC(=O)Nc1cc(C(F)(F)F)ccc1Cl", "207 to 209 °C"],
  ["O=C(Nc1cccc(C(F)(F)F)c1)Nc1cc(Cl)c(O)c(Cl)c1", "215 to 218 °C"],
  ["Cc1cc(O)cc(NC(=O)Nc2cc(C(F)(F)F)ccc2Cl)c1", "190 to 192 °C"]
]}

Challenge: Report melting point for O=C(Nc1cccc(C(F)(F)F)c1)Nc1c(O)cccc1[N+](=O)[O-] please.
Response given: 174 to 175 °C

Challenge: What does the record list as melting point for COc1ccc(Cl)cc1NC(=O)Nc1cc(C(F)(F)F)ccc1Cl ?
Response given: 172 to 176 °C

----------
Measure Name: melting point

As a guide, the following entries are already answered.
{"columns": ["Substance Smiles", "Measure Name", "Result"],
 "data": [
  ["O=C(Nc1cccc(C(F)(F)F)c1)Nc1ccc(O)c(Cl)c1", "melting point", "194 to 196 °C"],
  ["O=C(Nc1ccc(-c2ccccc2)cc1)Nc1cc(Cl)c(O)c(Cl)c1", "melting point", "249 to 251 °C"],
  ["O=C(Nc1cccc(-c2ccccc2)c1)Nc1cc(Cl)c(O)c(Cl)c1", "melting point", "252 to 253 °C"],
  ["O=C(Nc1cc(Cl)c(O)c(Cl)c1)Nc1cc(C(F)(F)F)ccc1Cl", "melting point", "213 to 221 °C"],
  ["Cc1cc(O)ccc1NC(=O)Nc1cccc(C(F)(F)F)c1", "melting point", "185 to 186 °C"]
]}

Continue with the compound presented below.
Challenge: Given the entry COc1ccc(Cl)cc1NC(=O)Nc1ccc([N+](=O)[O-])cc1O , report its measured melting point.
Response given: 225 to 226 °C

Cited source for all entries: patent US20070142450A1
